- System: S. aureus ATCC 29213
- experiment: MIC determination, broth microdilution
- Assay type: cell-based
- settings: Staphylococcus aureus, ATCC29213
Below, each entry is listed with its recorded MIC.

C[C@@H]1NC(=O)[C@@H](Cc2c[nH]c3ccccc23)n2c1nc1ccccc1c2=O; > 100 µM
CC(C)C[C@@H]1NC(=O)[C@H](Cc2c[nH]c3cc(F)ccc23)n2c1nc1c(Cl)cc(Cl)cc1c2=O [Compound 12c]; 33 µM
CC(C)C[C@@H]1NC(=O)[C@@H](Cc2c[nH]c3ccccc23)n2c1nc1cc(F)ccc1c2=O [Compound 12b]; 77 µM
CC(C)C[C@@H]1NC(=O)[C@@H](Cc2c[nH]c3ccccc23)n2c1nc1ccc(F)cc1c2=O [Compound 12a]; > 100 µM
CC(C)C[C@@H]1NC(=O)[C@H](Cc2c[nH]c3c(Cl)cccc23)n2c1nc1c(Cl)cc(Cl)cc1c2=O [Compound 12d]; 32 µM

Read the next record carefully.
Entry O=C1NCc2nc3ccccc3c(=O)n2[C@@H]1Cc1c[nH]c2ccccc12 : reported MIC = ? > 100 µM
